Collected from the literature: Ki of various compounds toward Carbonic anhydrase 9 (Homo sapiens).
One threshold, 0.1 µM, splits the recorded Ki values: lower ones are True, equal or higher ones are False.

Here's what some known entries look like.
Compound | Tgt | Qualitative label
CCC(=O)Nc1cc(S(N)(=O)=O)ccc1OCc1cn(CCCS(=O)(=O)[O-])nn1.[Na+] | Carbonic anhydrase 9 (Homo sapiens) | True
CC1(C)N=C(N)N=C(N)N1c1ccc(S(N)(=O)=O)cc1 | Carbonic anhydrase 9 (Homo sapiens) | False
COc1ccc(CCNC(=S)NC(=O)c2cc3ccccc3oc2=O)cc1OC | Carbonic anhydrase 9 (Homo sapiens) | False
COc1cc(C(=O)OCCCCCCCN(C)CCOC(=O)c2ccc(S(N)(=O)=O)cc2)cc(OC)c1OC | Carbonic anhydrase 9 (Homo sapiens) | False

Query: Consider CC1CCC(C(C)C)C(OCCCOc2ccc3ccc(=O)oc3c2)C1 (stereo not drawn) . Does its Ki lie strictly below 0.1 µM?
Reply: True

Query: Hello, is Ki of the following compound strictly smaller than 0.1 µM? NS(=O)(=O)c1ccc(-n2cc(-c3ccccn3)nn2)cc1
Reply: True

Query: Regarding O=C(NC(=S)NCCN1CCCC1)c1cc2ccccc2oc1=O , kindly confirm whether its Ki is beneath 0.1 µM.
Reply: False

Query: Threshold test, Ki < 0.1 µM: O=C(NC(=S)NCc1ccc2c(c1)OCO2)c1cc2ccccc2oc1=O
Reply: False

Query: Quick check: Ki of CN(CCCCCCCOC(=O)c1c2ccccc2cc2ccccc12)CCOC(=O)c1ccc(S(N)(=O)=O)cc1 under 0.1 µM?
Reply: True

Query: Answer whether the compound NS(=O)(=O)c1ccc(CNC(=O)NCc2cn(CCCS(=O)(=O)[O-])nn2)cc1.[Na+] has Ki strictly less than 0.1 µM
Reply: True

Query: hey, is Ki for NS(=O)(=O)c1ccc(C(=O)N2CC(=O)N3CCc4ccccc4C3C2)cc1 (stereo not drawn) lower than 0.1 µM or not?
Reply: True

Query: Strictly below 0.1 µM in Ki? Cn1c2ccc(F)cc2c2nnc(SCc3cn(-c4ccc(S(N)(=O)=O)cc4)nn3)nc21
Reply: True

Query: API: query returns whether the compound falls strictly under 0.1 µM in Ki. Query: CCOC(=O)c1ccc(NC(=S)NC(=O)c2cccc(NC(=O)c3ccc(C)cc3)c2)cc1
Reply: False

Query: Lab note: confirm whether the reported Ki for this compound is below 0.1 µM, equality not counting. compound: COc1cccc(C(=O)N2CCc3cc(S(N)(=O)=O)ccc32)c1
Reply: False

Query: Does this compound meet the criterion Ki < 0.1 µM? CCN(CC)CCC(=O)N(CCc1ccc(S(N)(=O)=O)cc1)Cc1ccccc1
Reply: True

Query: Regarding CC1CCC(C(C)C)C(OCc2cn(CCCCOc3ccc4ccc(=O)oc4c3)nn2)C1 (stereo not drawn) , kindly confirm whether its Ki is beneath 0.1 µM.
Reply: False

Query: Does the reported Ki of the following compound sit strictly below 0.1 µM? COc1cc(/C=C/C(=O)OCCCCCCN(C)CCCOC(=O)c2ccc(S(N)(=O)=O)cc2)cc(OC)c1OC
Reply: True

Query: Find out if reported Ki for CSCC[C@H](NC(=O)OC(C)(C)C)C(=O)Nc1ccc2c(c1)NC(=O)CC2 (stereo in doubt) is less than 0.1 µM
Reply: False

Query: Input Cn1c(C(=O)Nc2ccc(S(N)(=O)=O)cc2)cc2sccc21 ; condition: Ki strictly below 0.1 µM. Does it hold?
Reply: True

Query: Given the entry NS(=O)(=O)c1ccc(CCN2C(=O)/C(=C/c3ccc(Br)cc3)C=C2c2ccccc2)cc1 , would its reported Ki be below 0.1 µM?
Reply: False

Query: Does COc1cc(/C=C/C(=O)OCCCCCN(C)CCCOC(=O)c2ccc(S(N)(=O)=O)cc2)cc(OC)c1OC have Ki strictly under 0.1 µM?
Reply: False

Query: Decide: Ki of NS(=O)(=O)c1ccc(NC(=O)c2cc(-c3ccccc3O)[nH]n2)cc1 strictly below 0.1 µM?
Reply: False

Query: Quick check: Ki of NS(=O)(=O)c1ccc(N2N=C(c3ccc(O)cc3)CC2c2ccc(Br)cc2)cc1 (stereo not drawn) under 0.1 µM?
Reply: True

Query: I'd appreciate it if you could check whether NS(=O)(=O)c1ccc(CCN(Cc2ccc3ccccc3c2)C(=O)CN(CCC(=O)O)CCc2ccccc2)cc1 has Ki smaller than 0.1 µM.
Reply: True

Query: Input CCOC(=O)c1ccc(NC(=S)NC(=O)c2ccc(NC(=O)c3ccc(C)cc3)cc2)cc1 ; condition: Ki strictly below 0.1 µM. Does it hold?
Reply: False

Query: Say whether its Ki is strictly beneath 0.1 µM. Entry: CC1CCC2(CC1)N=C(N)N=C(N)N2c1ccc(S(=O)(=O)Nc2nccs2)cc1 (stereo not drawn)
Reply: False

Query: Lab note: Ki threshold 0.1 µM. Does this compound come in strictly under it? NS(=O)(=O)c1ccc(CCN2C(=O)/C(=C/c3ccc(F)cc3)C=C2c2ccc(Cl)cc2)cc1
Reply: True

Query: Regarding Cc1cc(=O)oc2cc(NC(=O)[C@H](C)NC(=O)OCc3ccccc3)ccc12 , kindly confirm whether its Ki is beneath 0.1 µM.
Reply: True
